The binders listed here are annotated with their pKd.
# System Tested: CXCL1_HUMAN (human, UniProt P09341 35-107)
# Sequence (P09341 35-107): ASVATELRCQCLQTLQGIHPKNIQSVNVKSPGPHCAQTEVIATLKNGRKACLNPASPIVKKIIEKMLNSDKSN
# Assay Overview: BLI
API: returns pKd as number; meaning -log10 of concentration in mol/L.

[[record]]
binder = "P1074_IXORI (other) GSKESSAHQSSDDSIKAEFCDAKCTMKTDGKWTQCHGGCFCVHVGNETEGRCMRLDGDYDYPSTQPEE"
value_type = "pKd"
numeric_result = 7.56


## Task Need pKd, item P1077_IXORI (other) GSKQLIGPQSSTNSIKAEFCDTNCTAGTNGIWNGCSGDCFCTHVGNSTEGRCMKITGFDEYPTSEAEE
## Result 8.12

## Task Need pKd, item P1090_IXORI (other) GSKELSGPESSENSIEAAFCDTNCTEGTDGVWSGCSAGCFCVHVGNSTVGRCMTFNGVDGG
## Result 8.45

## Task Need pKd, item P1162_IXORI (other) LNDEELFTVDYCGTNCTQQPNGSWTTCPGNCSCYHEDGKTDGFCLSTEYTDFTQFPNLTSEEMDAATPRPE
## Result 8.58

Each recorded value in this set is attributed to patent US20200247855A1.
